Reported TGI values for a set of molecules
test system: CAKI-1 renal; experiment: NCI tumour cell line growth inhibition, 48 h

COc1cc2c(OC)cc1CSCc1sc(C)c(c1Br)CSC2 | > 100 µM
c1ccc(NN=C(c2ccccn2)c2ccccn2)nc1 | > 100 µM
CN1C(=O)CSC1=S | > 100 µM
CN1C(=O)c2ccccc2OC12C=Cc1ccc(O)cc1O2 (centres undefined) | 58 µM
COc1cc(C(=O)N2CCN(c3ncccn3)CC2)c(N)cc1OCc1ccccc1 | > 100 µM

Query :: Record request: TGI value, item Cc1nc(-[n+]2nc(-c3ccncc3)nn2-c2ccccc2)sc1C
Result :: > 100 µM

Query :: Record request: TGI value, item c1ccc2nc3c(nc2c1)sc1ccccc13
Result :: 30.2 µM

Query :: Record request: TGI value, item Cc1cc2c(cc1C)C(=O)C1(C2)Cc2c(C)ccc(C)c2C1=O (centres undefined)
Result :: > 100 µM

Query :: Record request: TGI value, item CCOC(=O)c1c(NC(=O)OC)c(C#N)c2n1CCCCC2
Result :: > 100 µM
